Test system: DU-145
experiment: Antitumor activity against human DU145 cells after 3 days by MTT assay
Type: functional, cell-based
assaySetup: DU-145, 72 h

{"structure": "CC(C)[C@H]1NC(=O)C[C@@H]2NC(=O)[C@H](Cc3ccccc3)NC(=O)[C@H](Cc3ccccc3)NC(=O)[C@H](CSSCCNC2=O)NC1=O", "IC50 [nM]": 180}

Data provenance: ChEMBL document CHEMBL1142513
